Exercise: state measured self-cleavage for each of the variants provided.
B1: HDV Ribozyme (parent)
chain: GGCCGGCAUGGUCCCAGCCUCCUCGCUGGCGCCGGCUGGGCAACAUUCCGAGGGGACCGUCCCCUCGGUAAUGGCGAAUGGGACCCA

Variants of: B1
test-summary: self-cleavage, relative activity (ratio to wild type); higher = more cleavage; co-transcriptional
Give bare numbers.

Examples with their reported self-cleavage follow.
{"mutation-id": "C33G C86G", "measurement-label": "self-cleavage", "value-observed": 0.151}
{"mutation-id": "C7U C85U", "measurement-label": "self-cleavage", "value-observed": 0.886}
{"mutation-id": "G6U A43G", "measurement-label": "self-cleavage", "value-observed": 0.0665}
{"mutation-id": "U65C U79A", "measurement-label": "self-cleavage", "value-observed": 0.644}

# evaluate next
Which value of self-cleavage has been reported for G50U C64U in the records?
0.901
